Sourced from patent US20230272055A1

Target: T1, human mutCALR on BaF3 cells stably expressing human MPL and human mutCALR (MPL-mutCALR cells) (human)
T1 construct: also called mutant calreticulin
T1 chain: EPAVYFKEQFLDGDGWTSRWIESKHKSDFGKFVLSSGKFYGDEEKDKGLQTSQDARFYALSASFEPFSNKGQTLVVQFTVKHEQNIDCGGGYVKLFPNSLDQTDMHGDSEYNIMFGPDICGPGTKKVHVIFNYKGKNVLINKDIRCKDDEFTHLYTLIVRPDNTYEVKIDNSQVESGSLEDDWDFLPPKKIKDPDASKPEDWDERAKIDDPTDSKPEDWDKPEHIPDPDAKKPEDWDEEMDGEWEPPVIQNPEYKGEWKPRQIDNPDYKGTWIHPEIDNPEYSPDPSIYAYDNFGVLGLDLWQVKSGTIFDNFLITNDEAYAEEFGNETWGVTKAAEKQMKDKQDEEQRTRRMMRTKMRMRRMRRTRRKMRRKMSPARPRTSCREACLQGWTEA
Assay: flow cytometry, BaF3 MPL-mutCALR cells
Reported EC50 values for the following binders.
Please respond with the number in ng/mL and leave the unit unwritten.

Here's what some known entries look like.
[
  {
    "binder": "anti-mutCALR antibody clone 174 (antibody, human IgG1, lambda, N297A, V domains shown) VH: EVQLVQSGAEVKKPGASVKVSCKVSGYTLTELSMQWVRQAPGKGLEWMGGFDPDDAETMYAEKFQGRLTVTEDTSTDTVYMELRSLTSEDTALYFCATSPGYDFFDYWGQGTLVTVSS VL: SYVLTQPPSVSVAPGQTARITCGGSDIGDEIVHWYQQKPGQAPVLVVYDDSDRPSGIPERFSGSNSGNTATLTISRAQAGDEADYYCQVWDSSSDHLIFGGGTKLTVLG",
    "attribute_measured": "EC50",
    "reported_value": 4
  },
  {
    "binder": "anti-mutCALR antibody clone 12 (antibody, human IgG1, lambda, V domains shown, human IgG1) VH: EVQLVQSGAEVKKPGASVKVSCKVSGYTLTELSMQWVRQAPGKGLEWMGGFDPDGGETMYAEKFQGRLTVTEDTSTDTVYMELRSLTSEDTALYFCATSPGYDFFDYWGQGTLVTVSS VL: SYVLTQPPSVSVAPGQTARVSCGGNNIGSKSVNWYRQKPGQAPVLVIYDDSDRPSGIPERFSGSNSGNTATLTINRVEAGDEADYYCQVWDSSNDLLIFGGGTKLTVLG",
    "attribute_measured": "EC50",
    "reported_value": 20
  },
  {
    "binder": "anti-mutCALR antibody clone 56 (antibody, human IgG1, lambda, N297A, V domains shown) VH: EVQLVQSGAEVKKPGASVKVSCKVSGYTLTELSMQWVRQAPGKGLEWMGGFDPDAGETMYAEKFQGRLTVTEDTSTDTVYMELRSLTSEDTALYFCATSPGYDFFDYWGQGTLVTVSS VL: QSALTQPASVSGSPGQSITISCTGTSSDVGGYNYVSWYQQHPGKAPKLMIYEVSNRPSGVSNRFSGSNSGNTATLTINRVEAGDEADYYCQVWDSSNDLLIFGGGTKLTVLG",
    "attribute_measured": "EC50",
    "reported_value": 6.9
  },
  {
    "binder": "anti-mutCALR antibody clone 173 (antibody, human IgG1, lambda, N297A, V domains shown) VH: EVQLVQSGAEVKKPGASVKVSCKVSGYTLTELSMQWVRQAPGKGLEWMGGFDPDEGETMYAEKFQGRLTVTEDTSTDTVYMELRSLTSEDTALYFCATSPGYDFFDYWGQGTLVTVSS VL: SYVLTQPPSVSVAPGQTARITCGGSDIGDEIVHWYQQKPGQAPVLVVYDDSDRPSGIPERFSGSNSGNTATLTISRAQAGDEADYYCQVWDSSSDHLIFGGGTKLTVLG",
    "attribute_measured": "EC50",
    "reported_value": 4.3
  }
]

Consider now this further binder.
Ask: Given the entry anti-mutCALR antibody clone 71 (antibody, human IgG1, lambda, N297A, V domains shown) VH: EVQLVQSGAEVKKPGASVKVSCKVSGYTLTELSMQWVRQAPGKGLEWMGGFDPDAGETMYAEKFQGRLTVTEDTSTDTVYMELSSLRSEDTAVYFCATSPGYDFFDYWGQGTLVTVSS VL: SYVLTQPPSVSVAPGKTARITCTGTSSDVGGYNYVSWYQQKPGQAPVLVVYEVSNRPSGIPERFSGSNSGNTATLTISRVEAGDEADYYCQVWDSSNDLLIFGGGTKLTVLG , report its measured EC50.
Reply: 9.7
